target-or-test-system: UniProt Q08499
Sequence (Q08499 whole entry): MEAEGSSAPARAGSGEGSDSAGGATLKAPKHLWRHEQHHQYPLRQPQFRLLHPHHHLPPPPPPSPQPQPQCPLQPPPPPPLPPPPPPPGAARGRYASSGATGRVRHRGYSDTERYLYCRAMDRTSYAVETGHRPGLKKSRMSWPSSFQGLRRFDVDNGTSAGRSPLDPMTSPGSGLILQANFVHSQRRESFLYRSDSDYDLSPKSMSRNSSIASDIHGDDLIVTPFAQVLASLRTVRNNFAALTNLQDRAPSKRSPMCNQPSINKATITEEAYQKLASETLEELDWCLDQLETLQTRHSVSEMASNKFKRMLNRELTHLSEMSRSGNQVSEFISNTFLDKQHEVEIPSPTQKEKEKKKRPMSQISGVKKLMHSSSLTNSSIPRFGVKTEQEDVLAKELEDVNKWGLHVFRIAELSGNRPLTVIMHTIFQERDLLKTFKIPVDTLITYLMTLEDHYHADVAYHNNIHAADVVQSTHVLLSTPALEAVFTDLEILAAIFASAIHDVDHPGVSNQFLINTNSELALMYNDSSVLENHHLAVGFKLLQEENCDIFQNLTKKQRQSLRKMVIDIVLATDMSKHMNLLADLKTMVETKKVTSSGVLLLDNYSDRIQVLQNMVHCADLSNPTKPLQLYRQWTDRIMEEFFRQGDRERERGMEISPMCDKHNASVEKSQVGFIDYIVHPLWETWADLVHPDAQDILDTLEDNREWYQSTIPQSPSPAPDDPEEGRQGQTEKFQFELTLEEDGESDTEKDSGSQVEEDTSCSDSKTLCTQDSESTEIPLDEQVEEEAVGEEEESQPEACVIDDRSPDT
Type: functional
observed-property: AC50

Look up AC50 with UniProt Q08499 for this compound: COc1ccc(C(=O)NCc2ccc(OCCN(C)C)cc2)cc1OC [ITOPRIDE]
> 30 µM

Look up AC50 with UniProt Q08499 for this compound: Cc1c(O)c(=O)ccn1C
> 30 µM

Look up AC50 with UniProt Q08499 for this compound: O=C(O)Cc1cn(-c2ccccc2)nc1-c1ccc(Cl)cc1
> 30 µM

Look up AC50 with UniProt Q08499 for this compound: C#C[C@]1(O)CC[C@H]2[C@@H]3CCc4cc(O)ccc4[C@H]3CC[C@@]21C
16 µM

Look up AC50 with UniProt Q08499 for this compound: Nc1ncnc2c1ncn2[C@@H]1O[C@H](COP(=O)(O)O)[C@@H](O)[C@H]1O [ADENOSINE PHOSPHATE]
14 µM

Look up AC50 with UniProt Q08499 for this compound: C[C@]12CCC(=O)C=C1CC[C@@H]1[C@@H]2CC[C@@]2(C)[C@H]1CC[C@]2(C)O
> 30 µM

Look up AC50 with UniProt Q08499 for this compound: CN1C(=O)N(C)C2C1N(C)C(=O)N2C (stereo not drawn)
> 30 µM

Look up AC50 with UniProt Q08499 for this compound: COC(=O)C1=C(C)NC(C)=C(C(=O)OCC(C)C)C1c1ccccc1[N+](=O)[O-] (stereo not drawn)
11 µM

Look up AC50 with UniProt Q08499 for this compound: CC(C)(Oc1ccc(C2CC2(Cl)Cl)cc1)C(=O)O (stereo not drawn) [CIPROFIBRATE]
> 30 µM

Look up AC50 with UniProt Q08499 for this compound: CCCCCOC(=O)Nc1nc(=O)n([C@@H]2O[C@H](C)[C@@H](O)[C@H]2O)cc1F
> 30 µM

Look up AC50 with UniProt Q08499 for this compound: CCN(CC)CCNC(=O)c1cc(Cl)c(N)cc1OC [METOCLOPRAMIDE]
> 30 µM

Look up AC50 with UniProt Q08499 for this compound: Cc1ccc(-c2nc3ccc(C)cn3c2CC(=O)N(C)C)cc1
> 30 µM

Look up AC50 with UniProt Q08499 for this compound: COc1ccc2c(c1)C(=O)N(CCc1ccc(S(=O)(=O)NC(=O)NC3CCCCC3)cc1)C(=O)C2(C)C
1.4 µM

Look up AC50 with UniProt Q08499 for this compound: CC(C)(C(=O)c1cccnc1)c1cccnc1
> 30 µM

Look up AC50 with UniProt Q08499 for this compound: NC1=NC(=O)C(c2ccccc2)O1 (stereo not drawn)
> 30 µM

Look up AC50 with UniProt Q08499 for this compound: CC(C(=O)O)c1ccc(N2CC=CC2)c(Cl)c1 (stereo not drawn)
> 30 µM

Look up AC50 with UniProt Q08499 for this compound: Oc1ncnc2[nH]ncc12
> 30 µM

Look up AC50 with UniProt Q08499 for this compound: CC(C)NCC1CCc2cc(CO)c([N+](=O)[O-])cc2N1 (stereo not drawn)
> 30 µM

Look up AC50 with UniProt Q08499 for this compound: C[C@H]1C[C@@H]2[C@H]([C@@H](O)C[C@@]3(C)[C@H]2CC[C@]3(O)C(=O)CO)[C@@]2(C)C=CC(=O)C=C12
16 µM

Look up AC50 with UniProt Q08499 for this compound: CCCCOc1cc(C(=O)NCCN(CC)CC)c2ccccc2n1
> 30 µM

Look up AC50 with UniProt Q08499 for this compound: CCNC(C)Cc1cccc(C(F)(F)F)c1 (stereo not drawn)
> 30 µM

Look up AC50 with UniProt Q08499 for this compound: COCC1=C(C(=O)OC(C)OC(=O)OC(C)C)N2C(=O)[C@@H](NC(=O)/C(=N\OC)c3csc(N)n3)[C@H]2SC1 (stereo partly drawn)
29 µM

Look up AC50 with UniProt Q08499 for this compound: CN1C(=O)CC(c2ccccc2)C1=O (stereo not drawn) [PHENSUXIMIDE]
> 30 µM

Look up AC50 with UniProt Q08499 for this compound: CN1CCCC(n2nc(Cc3ccc(Cl)cc3)c3ccccc3c2=O)CC1 (stereo not drawn)
> 30 µM

Look up AC50 with UniProt Q08499 for this compound: CC(C(=O)O)c1ccc(C(=O)c2cccs2)cc1 (stereo not drawn)
> 30 µM

Look up AC50 with UniProt Q08499 for this compound: NC(=O)C[S+]([O-])C(c1ccccc1)c1ccccc1 (stereo not drawn)
> 30 µM

Look up AC50 with UniProt Q08499 for this compound: CCCCCN(C)CCC(O)(P(=O)(O)O)P(=O)(O)O
> 30 µM

Look up AC50 with UniProt Q08499 for this compound: CN1CC[C@]23CCCC[C@H]2[C@H]1Cc1ccc(O)cc13
> 30 µM

Look up AC50 with UniProt Q08499 for this compound: CC(=O)c1ccc2c(c1)N(CCCN1CCN(CCO)CC1)c1ccccc1S2
> 30 µM

Look up AC50 with UniProt Q08499 for this compound: NC(=O)c1cnccn1 [PYRAZINAMIDE]
> 30 µM

Look up AC50 with UniProt Q08499 for this compound: CC(C)[N+](C)(CCC(C(N)=O)(c1ccccc1)c1ccccc1)C(C)C [ISOPROPAMIDE]
> 30 µM

Look up AC50 with UniProt Q08499 for this compound: OCCN1CCN(CCCN2c3ccccc3C=Cc3ccccc32)CC1
> 30 µM

Look up AC50 with UniProt Q08499 for this compound: O=C1CCC(N2C(=O)c3ccccc3C2=O)C(=O)N1 (stereo not drawn) [THALIDOMIDE]
> 30 µM

Look up AC50 with UniProt Q08499 for this compound: C[C@@H]1O[C@@H]1P(=O)(O)O
> 30 µM

Look up AC50 with UniProt Q08499 for this compound: Cc1cccc(C)c1NC(=O)C1CCCCN1C (stereo not drawn) [MEPIVACAINE]
> 30 µM

Look up AC50 with UniProt Q08499 for this compound: O=C(O)c1cccc(-c2noc(-c3ccccc3F)n2)c1
> 30 µM

Look up AC50 with UniProt Q08499 for this compound: C1COC(NC(C2CC2)C2CC2)=N1
> 30 µM

Look up AC50 with UniProt Q08499 for this compound: NC[C@H]1O[C@H](O[C@H]2[C@H](O)[C@@H](O[C@H]3O[C@H](CO)[C@@H](O)[C@H](N)[C@H]3O)[C@H](N)C[C@@H]2N)[C@H](O)[C@@H](O)[C@@H]1O
> 30 µM
